system.under.test: T1, human MerTK (human, UniProt Q12866 26-499)
T1 construct: also called HuMER
T1 sequence: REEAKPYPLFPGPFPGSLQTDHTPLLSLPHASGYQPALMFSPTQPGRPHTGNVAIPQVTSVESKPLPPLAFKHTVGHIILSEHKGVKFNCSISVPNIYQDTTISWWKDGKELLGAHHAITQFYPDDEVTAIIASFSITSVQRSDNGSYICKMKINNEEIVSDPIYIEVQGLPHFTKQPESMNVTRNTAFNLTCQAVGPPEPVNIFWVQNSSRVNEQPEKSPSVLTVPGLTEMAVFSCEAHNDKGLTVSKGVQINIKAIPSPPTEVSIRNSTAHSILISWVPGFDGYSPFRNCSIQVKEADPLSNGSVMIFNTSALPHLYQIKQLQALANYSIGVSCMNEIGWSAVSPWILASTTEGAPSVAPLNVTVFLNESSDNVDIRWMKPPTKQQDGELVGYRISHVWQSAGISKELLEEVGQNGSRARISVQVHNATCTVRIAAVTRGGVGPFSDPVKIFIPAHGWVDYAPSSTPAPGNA
assay.info: SPR BIAcore T200, Ab captured, 37C
readout.name: Kd (nM)
The response must be a number in nM with no trailing unit.

Solved entries:
binder | Kd, nM
Rbt9E3.FN (antibody, V domains shown, Recombinant rabbit monoclonal antibody, Expi293, protein A purified) VH: QSVEESGGRLVTPGTPLTLTCTVSGFSLSSNAMSWVRQAPGKGLEWIGIISSSGSTYSASWAKGRFTISKTSTTMDLKITSPTTEDTATYFCARVGFFVGYGAYDYGIIHRLDLWGQGTLVTVSS VL: AAVLTQTPSPVSAAVGGTVSISCQSSKSIYNNNWLSWYQQKPGQPPKLLIYDASDLASGVPSRFEGSGSGTEFTLTISDLECDDAATYYCAGGYSGDSDYAFGGGTEVVVK | 5.1
Rbt10F7 (antibody, V domains shown, Recombinant rabbit monoclonal antibody, Expi293, protein A purified) VH: QSVEESGGRLVTPGTPLTLTCTVSGFSLSGYAMSWVRQAPGKGLEYIGVISSSGSSYYPSWAKGRFTISKTSTTVDLQITSPTTEDTATYFCARVQFYVGYAVYGYGIIDRLDLWGQGTLVTVSS VL: AAVLTQTPSPVSATMGGTVSISCQSSKSVYNNNWLSWYQQKPGQPPKLLIYRASTLESGVPSRFKGSGSGTQFTLTISDVHCDDAATYFCAGGYSSSSSANAFGGGTEVVVK | 10.9

For reference, reported Kd for Rbt13B4 (antibody, V domains shown, Recombinant rabbit monoclonal antibody, Expi293, protein A purified; also called Rb13B4) VH: QSVEESGGRLVTPGTPLTLTCTVSGFSLSSYAMGWVRQAPGKGLEWIGIINSYGNTYYANWAKGRFTISRTSTTVDLRMPSLTTEDTATYFCARDPGVSSNLWGPGTLVTVSS VL: DVVMTQTPASVSEPVGGTVTIKCQASQNIYSGLAWYQQKPGQPPKLLIYGASKLASGVSSRFKGSGSGTEFTLTISDLECADAATYYCQATYYSSNSVAFGGGTEVVVK stands at 4.9
